All figures here come from ChEMBL document CHEMBL1201862.

biological target: Fatty acid synthase (Homo sapiens, UniProt P49327); test: inhibition of human FAS-TE enzyme activity – biochemical, endpoint fluorescence intensity, uHTS hits, dose response (AID 624327); format: functional;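 further: fluorescence from hydrolysis of an O-methyl fluorescein acyl ester substrate by the enzyme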
Sequence (P49327 whole entry): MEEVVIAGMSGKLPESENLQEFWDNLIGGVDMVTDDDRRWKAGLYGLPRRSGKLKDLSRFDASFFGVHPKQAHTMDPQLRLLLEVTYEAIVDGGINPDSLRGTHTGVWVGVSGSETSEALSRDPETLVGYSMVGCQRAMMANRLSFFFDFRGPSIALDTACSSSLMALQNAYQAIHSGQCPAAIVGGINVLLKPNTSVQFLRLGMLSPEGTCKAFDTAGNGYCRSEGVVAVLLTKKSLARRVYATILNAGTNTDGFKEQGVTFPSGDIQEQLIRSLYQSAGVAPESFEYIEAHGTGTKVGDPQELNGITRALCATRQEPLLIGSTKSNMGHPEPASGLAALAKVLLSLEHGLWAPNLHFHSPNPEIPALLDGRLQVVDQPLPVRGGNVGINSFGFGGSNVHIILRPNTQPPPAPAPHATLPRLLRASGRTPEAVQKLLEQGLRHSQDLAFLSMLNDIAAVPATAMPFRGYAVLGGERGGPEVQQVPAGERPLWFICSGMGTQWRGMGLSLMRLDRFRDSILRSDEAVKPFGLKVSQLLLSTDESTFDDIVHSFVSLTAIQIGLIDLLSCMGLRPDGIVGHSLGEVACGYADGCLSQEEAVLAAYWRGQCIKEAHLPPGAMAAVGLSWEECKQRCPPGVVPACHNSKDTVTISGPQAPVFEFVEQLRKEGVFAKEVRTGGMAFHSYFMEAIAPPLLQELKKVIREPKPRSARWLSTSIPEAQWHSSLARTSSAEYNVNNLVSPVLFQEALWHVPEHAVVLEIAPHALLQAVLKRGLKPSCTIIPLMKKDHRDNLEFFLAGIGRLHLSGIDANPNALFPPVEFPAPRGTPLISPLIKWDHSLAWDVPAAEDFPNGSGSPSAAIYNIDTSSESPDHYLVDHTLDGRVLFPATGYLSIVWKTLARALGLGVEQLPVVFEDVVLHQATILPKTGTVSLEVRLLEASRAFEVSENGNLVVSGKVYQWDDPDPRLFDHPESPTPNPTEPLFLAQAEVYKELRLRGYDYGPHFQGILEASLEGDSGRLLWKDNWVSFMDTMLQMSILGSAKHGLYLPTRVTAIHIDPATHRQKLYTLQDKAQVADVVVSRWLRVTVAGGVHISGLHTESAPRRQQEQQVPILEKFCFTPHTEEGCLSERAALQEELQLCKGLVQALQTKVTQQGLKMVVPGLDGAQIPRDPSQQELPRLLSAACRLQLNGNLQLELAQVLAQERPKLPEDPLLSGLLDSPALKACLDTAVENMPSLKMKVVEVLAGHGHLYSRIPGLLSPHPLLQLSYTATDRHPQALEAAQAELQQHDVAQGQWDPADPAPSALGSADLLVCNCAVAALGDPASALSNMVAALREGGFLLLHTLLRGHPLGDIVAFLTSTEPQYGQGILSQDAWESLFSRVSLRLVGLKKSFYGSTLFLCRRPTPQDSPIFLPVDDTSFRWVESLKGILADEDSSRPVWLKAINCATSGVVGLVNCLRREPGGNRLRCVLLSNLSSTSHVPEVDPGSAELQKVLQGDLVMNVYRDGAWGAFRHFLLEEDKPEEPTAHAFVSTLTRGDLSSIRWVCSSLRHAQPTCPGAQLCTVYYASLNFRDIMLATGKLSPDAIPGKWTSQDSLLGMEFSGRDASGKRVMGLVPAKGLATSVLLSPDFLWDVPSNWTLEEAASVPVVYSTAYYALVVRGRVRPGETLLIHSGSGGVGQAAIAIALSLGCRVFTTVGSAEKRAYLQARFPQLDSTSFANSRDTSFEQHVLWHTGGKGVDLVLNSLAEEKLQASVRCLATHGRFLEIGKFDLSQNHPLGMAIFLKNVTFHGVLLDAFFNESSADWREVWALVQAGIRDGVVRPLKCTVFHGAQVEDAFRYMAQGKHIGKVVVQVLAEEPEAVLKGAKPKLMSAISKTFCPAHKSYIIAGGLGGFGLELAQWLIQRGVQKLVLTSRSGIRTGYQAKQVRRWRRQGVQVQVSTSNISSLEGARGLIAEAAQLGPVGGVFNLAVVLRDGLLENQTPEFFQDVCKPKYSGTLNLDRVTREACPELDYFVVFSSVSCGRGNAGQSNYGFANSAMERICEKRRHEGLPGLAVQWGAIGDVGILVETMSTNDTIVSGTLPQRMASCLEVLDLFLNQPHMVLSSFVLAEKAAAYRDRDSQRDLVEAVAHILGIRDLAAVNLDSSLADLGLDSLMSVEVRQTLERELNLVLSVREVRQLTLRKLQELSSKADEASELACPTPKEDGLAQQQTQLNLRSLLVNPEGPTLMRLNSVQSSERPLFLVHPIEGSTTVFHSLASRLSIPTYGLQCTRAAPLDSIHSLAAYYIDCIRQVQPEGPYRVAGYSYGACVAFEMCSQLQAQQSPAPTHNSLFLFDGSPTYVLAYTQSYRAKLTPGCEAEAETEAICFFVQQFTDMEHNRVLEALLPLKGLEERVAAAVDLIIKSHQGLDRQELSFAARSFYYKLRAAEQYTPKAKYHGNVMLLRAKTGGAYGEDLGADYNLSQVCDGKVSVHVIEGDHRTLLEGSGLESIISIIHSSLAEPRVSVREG
The source made the active and inactive calls.
Listed below: IC50 values for each entry.
MEASUREMENT TYPE: IC50

| COMPOUND | MEASUREMENT TYPE | RESULT |
| --- | --- | --- |
| O=C(NC1CCCCCCC1)c1cc([N+](=O)[O-])ccc1Cl | IC50 | 9.4 µM (active) |
| COCCNC(=O)CCCn1c(=O)c2ccccc2n(Cc2cccc([N+](=O)[O-])c2)c1=O | IC50 | 11.6 µM (active) |
| O=C(NCCCCc1ccccc1)C1CC(c2ccc([N+](=O)[O-])cc2)=NO1 (stereo unspecified) | IC50 | 13.6 µM (active) |
| O=C(COc1ccc([N+](=O)[O-])cc1)NCCC1=CCCCC1 | IC50 | 8.16 µM (active) |
| C[C@H](CO)N1C[C@H](C)[C@@H](CN(C)C(=O)NC2CCCCC2)Oc2c(NC(=O)Nc3ccc4c(c3)OCO4)cccc2C1=O | IC50 | 1.66 µM (active) |
| O=C(O)CCCNc1c(C(=O)Nc2ccc(Cl)cc2)cc([N+](=O)[O-])cc1[N+](=O)[O-] | IC50 | 5.31 µM (active) |

---

Listed below: AC50 values for each entry.
biological target: Cytochrome P450 2C19 (Homo sapiens); experiment: Cytochrome panel assay with activity outcomes. Panel member name: p450-cyp2c19 Compounds with AC50 equal or less than 10 uM are considered active; type: functional; settings: read-out: AC50
Sequence (P33261 whole entry): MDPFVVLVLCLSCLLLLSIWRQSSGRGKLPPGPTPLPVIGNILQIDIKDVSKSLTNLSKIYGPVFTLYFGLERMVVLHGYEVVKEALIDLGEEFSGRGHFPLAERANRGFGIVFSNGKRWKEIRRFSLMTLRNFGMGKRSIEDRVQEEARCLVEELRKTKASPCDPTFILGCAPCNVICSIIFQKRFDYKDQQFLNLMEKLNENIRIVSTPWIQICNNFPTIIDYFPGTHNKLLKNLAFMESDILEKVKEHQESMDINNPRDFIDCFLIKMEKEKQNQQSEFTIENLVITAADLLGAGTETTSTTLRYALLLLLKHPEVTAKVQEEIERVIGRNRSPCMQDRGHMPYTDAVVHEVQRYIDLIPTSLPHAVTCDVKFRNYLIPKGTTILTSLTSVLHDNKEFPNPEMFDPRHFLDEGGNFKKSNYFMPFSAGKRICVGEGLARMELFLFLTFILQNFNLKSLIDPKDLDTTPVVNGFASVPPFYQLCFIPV

| MOLECULE | AC50 |
| --- | --- |
| O=C(Nc1ccccc1)/C(=C\c1ccc2c(c1)OCO2)NC(=O)c1ccco1 | 22.4 µM (inconclusive) |
| COc1ccc(-c2nc3ccccc3c(=O)n2N)cc1 | 0.631 µM (inconclusive) |
| CCCCCSc1nncc(O)n1 | 39.8 µM (inconclusive) |
| Cc1ccc(CS(=O)(=O)Cc2ccc(C(=O)NCC3CCCO3)o2)cc1 (stereo not drawn) | 31.6 µM (inconclusive) |
| Cn1c(C(=O)NCC2CCCO2)cc2c(=O)n3ccccc3nc21 (stereo not drawn) | 17.8 µM (inconclusive) |
| CNc1ccnc(-c2ccccc2C)n1 | 31.6 µM (inconclusive) |
| Cc1ccc(OCC(=O)NNC(=O)CCC(=O)NCc2ccccc2)cc1 | 0.00562 µM (inconclusive) |
| O=C(Cn1cnc2ccccc21)NC(c1ccccc1)c1ccccc1 | 20 µM (inconclusive) |

---

Listed below: CC50 values for each entry.
assay: viability of uninfected HEp-2 cells – cell-based, HTS, cytotoxicity control for RSV inhibitor project, dose response (AID 2410); assay type: functional; conditions: human respiratory syncytial virus
The source made the active and inactive calls.
MEASUREMENT TYPE: CC50

| MOLECULE | RESULT |
| --- | --- |
| C[C@]12CCC3C(CCC4=C/C(=N/OCC(=O)NC(CCC(N)=O)C(=O)O)CC[C@@]43C)C1CCC2O (stereo partly specified) | 22.6 µM (active) |
| COc1cc(SC)ccc1C(=O)NCCc1c[nH]c2ccccc12 | 19.9 µM (active) |
| CCOC(=O)c1c(-c2cccc(C)c2)csc1NC(=O)c1c(-c2ccccc2)noc1C | 5.17 µM (active) |
| CC(C)OC(=O)c1ccc(N2CCN(c3ccc(F)cc3)CC2)nc1 | 14.8 µM (active) |
| CCc1ccccc1OCC(=O)Nc1ccc2c(c1)OCCO2 | 35.6 µM (active) |
| CCn1nc(NC(=O)COC)c2cc3cccc(C)c3nc21 | > 50 µM (active) |
